inhibition at 50 µM for assorted molecules
target: human recombinant cathepsin L (Homo sapiens); construct: made in house; host or cells: Escherichia coli; assay: Determination of relative inhibition, substrate Z-Phe-Arg-AMC; format: biochemical; settings: inhibitor 50 μM; substrate 2 μM; mean ± SD (n = 2); read-out: Cathepsin L Ri (%) relative inhibition
Sequence (P07711 114-333): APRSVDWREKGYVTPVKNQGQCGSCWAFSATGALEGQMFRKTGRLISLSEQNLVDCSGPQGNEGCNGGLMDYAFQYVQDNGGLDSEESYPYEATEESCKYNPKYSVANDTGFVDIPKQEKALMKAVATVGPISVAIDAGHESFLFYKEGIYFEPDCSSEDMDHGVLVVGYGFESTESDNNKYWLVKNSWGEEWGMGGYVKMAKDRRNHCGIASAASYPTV

Study these solved cases before continuing.
Molecule	inhibition at 50 µM
O=C(NCC1CCN(C(=O)Oc2ccccc2)CC1)c1ccccc1 [Compound 48]	5.7%
Brc1ccccc1CNc1ncncc1-c1nc(-c2ccsc2)no1 [Compound 11]	6.3%

Switching to the query record.
Quick note, inhibition at 50 µM for Cc1cc(OCc2ccccc2)c(C(=O)C2OC2c2cc3ccccc3o2)cc1C (stereo not drawn) [Compound 27] landed at 22.6%
